The origin of these recorded values is patent US9394295B2.

Catalogue of molecules with associated CC50 at 72 h
# experimental.details: Cytotoxicity MTT assay (TOX HELAM)
# Assay type: cell-based
# settings: human, HelaM cells, read-out: TOX HELAM (222.125) CC50
API: value field is a number in µg/mL; no unit string.

Request the reported CC50 at 72 h associated with `Cc1ccccc1C1=CCCN(C(=O)/C=C/c2cnc3c(c2)CCC(=O)N3)CC1`
9.3

Request the reported CC50 at 72 h associated with `Cc1ccc(F)cc1C1=CCCN(C(=O)/C=C/c2cnc3c(c2)CCC(=O)N3)CC1`
8.57

Request the reported CC50 at 72 h associated with `O=C1CCc2cc(/C=C/C(=O)N3CC=C(c4ccccc4F)CCC3)cnc2N1`
12.5

Request the reported CC50 at 72 h associated with `O=C1CCc2cc(/C=C/C(=O)N3CC=C(c4ccccc4Cl)CCC3)cnc2N1`
8.52

---

Catalogue of molecules with associated solubility at 4 days
# experimental.details: Thermodynamic solubility / solubility in aqueous solution
# Format: physicochemical
# settings: aqueous with cosolvent or surfactant or cyclodextrin, thermodynamic from solid; 20% HP-β-CD buffer pH 7.4; 4 days at ambient temperature; read-out: Solubility, 20% HP-β-CD buffer pH 7.4
API: value field is a number in µg/mL; no unit string.

Request the reported solubility at 4 days associated with COc1ccc(F)cc1C1=CCCN(C(=O)/C=C/c2cnc3c(c2)CCC(=O)N3)CC1 [Co. No. 27]
590

Below: the item to evaluate.
Request the reported solubility at 4 days associated with O=C1CCc2cc(/C=C/C(=O)N3CCC=C(c4ccccc4)CC3)cnc2N1 [Co. No. 2]
1050

---

Catalogue of compounds with associated clearance
# experimental.details: In vivo pharmacokinetic and oral bioavailability
# settings: mouse, plasma, iv; i.v. 2.5 mg/kg, male Swiss mice; read-out: Plasma clearance Cl (converted)
# Description: The in vivo pharmacokinetics and oral bioavailability of the compound of the examples was/is investigated in male Swiss mice (fed) following single intravenous (i.v.) bolus and oral (p.o.) administration. For the i.v. and p.o. solution formulations, the compound was/is dissolved in a 20% HP-β-CD solution. The pH of the formulations was/is around pH 4. All i.v. formulations were isotonic.
Reply with the number, then its unit.

Some compounds with recorded clearance:
Request the reported clearance associated with Cc1ccc(F)cc1C1=CCN(C(=O)/C=C/c2cnc3c(c2)CCC(=O)N3)CCC1 [Co. No. 14]
6 mL/min/kg

Request the reported clearance associated with COc1ccc(F)cc1C1=CCCN(C(=O)/C=C/c2cnc3c(c2)CCC(=O)N3)CC1 [Co. No. 27]
12.5 mL/min/kg

Continuing:
Request the reported clearance associated with COc1ccccc1C1=CCCN(C(=O)/C=C/c2cnc3c(c2)CCC(=O)N3)CC1 [Co. No. 10]
20 mL/min/kg

---

# Test system: S. aureus
# experimental.details: Antibacterial susceptibility testing: IC90 determination with 10% human serum (STA + 10% HS)
# Assay type: cell-based
# settings: Staphylococcus aureus; S. aureus with human serum at final concentration of 10%; read-out: STA + 10% HS (361.169) IC90
property: IC90 (µg/mL)
API: value field is a number in µg/mL; no unit string.

Lab note: need IC90 for `O=C1CCc2cc(/C=C/C(=O)N3CC=C(c4ccc(Cl)cc4)CCC3)cnc2N1` on S. aureus, anyone have it?
5.08

Lab note: need IC90 for `O=C1CCc2cc(/C=C/C(=O)N3CC=C(c4cccc(Cl)c4)CCC3)cnc2N1` on S. aureus, anyone have it?
4.37

Lab note: need IC90 for `O=C1CCc2cc(/C=C/C(=O)N3CC=C(c4ccccc4Cl)CCC3)cnc2N1` on S. aureus, anyone have it?
1.15

Lab note: need IC90 for `COc1ccc(F)cc1C1=CCN(C(=O)/C=C/c2cnc3c(c2)CCC(=O)N3)CCC1` on S. aureus, anyone have it?
3.05

Continuing:
Lab note: need IC90 for `COc1cccc(C2=CCCN(C(=O)/C=C/c3cnc4c(c3)CCC(=O)N4)CC2)c1` on S. aureus, anyone have it?
1.66

Lab note: need IC90 for O=C1CCc2cc(/C=C/C(=O)N3CCCC(c4ccccc4)CC3)cnc2N1 (centres unmarked) on S. aureus, anyone have it?
3.54

Lab note: need IC90 for `COc1ccc(F)cc1C1=CCCN(C(=O)/C=C/c2cnc3c(c2)CCC(=O)N3)CC1` on S. aureus, anyone have it?
0.33

Lab note: need IC90 for `COc1ccccc1C1=CCN(C(=O)/C=C/c2cnc3c(c2)CCC(=O)N3)CCC1` on S. aureus, anyone have it?
1.48

---

Catalogue of compounds with associated CC50 at 72 h
# experimental.details: Cytotoxicity MTT assay (TOX HELAM)
# Assay type: cell-based
# settings: human, HelaM cells, read-out: TOX HELAM (222.125) CC50

Some compounds with recorded CC50 at 72 h:
Request the reported CC50 at 72 h associated with `O=C1CCc2cc(/C=C/C(=O)N3CCC=C(c4cccc(Cl)c4)CC3)cnc2N1`
> 20.4 µg/mL

Request the reported CC50 at 72 h associated with `O=C1CCc2cc(/C=C/C(=O)N3CCC=C(c4ccccc4)CC3)cnc2N1`
> 9.38 µg/mL

Request the reported CC50 at 72 h associated with `O=C1CCc2cc(/C=C/C(=O)N3CCc4ccccc4CC3)cnc2N1`
> 8.73 µg/mL

Continuing:
Request the reported CC50 at 72 h associated with `O=C1CCc2cc(/C=C/C(=O)N3CCC=C(c4ccccc4Cl)CC3)cnc2N1`
9.24 µg/mL

Request the reported CC50 at 72 h associated with `COc1ccccc1C1=CCCN(C(=O)/C=C/c2cnc3c(c2)CCC(=O)N3)CC1`
> 10.1 µg/mL

Request the reported CC50 at 72 h associated with `O=C1CCc2cc(/C=C/C(=O)N3CCC=C(c4ccc(Cl)cc4)CC3)cnc2N1`
7.25 µg/mL

Request the reported CC50 at 72 h associated with `COc1ccc(F)cc1C1=CCCN(C(=O)/C=C/c2cnc3c(c2)CCC(=O)N3)CC1`
> 10.6 µg/mL

Request the reported CC50 at 72 h associated with `Cc1ccc(C)c(C2=CCN(C(=O)/C=C/c3cnc4c(c3)CCC(=O)N4)CCC2)c1`
9.09 µg/mL

---

Catalogue of compounds with associated half-life
# experimental.details: In vivo pharmacokinetic and oral bioavailability
# settings: mouse, plasma, po; p.o. 10 mg/kg, male Swiss mice; read-out: Half life (t1/2) (converted)
API: value field is a number in h; no unit string.

Some compounds with recorded half-life:
Request the reported half-life associated with COc1ccccc1C1=CCCN(C(=O)/C=C/c2cnc3c(c2)CCC(=O)N3)CC1 [Co. No. 10]
2

Request the reported half-life associated with COc1ccc(F)cc1C1=CCCN(C(=O)/C=C/c2cnc3c(c2)CCC(=O)N3)CC1 [Co. No. 27]
2

Below: the item to evaluate.
Request the reported half-life associated with Cc1ccc(F)cc1C1=CCN(C(=O)/C=C/c2cnc3c(c2)CCC(=O)N3)CCC1 [Co. No. 14]
2.8

---

# experimental.details: Thermodynamic solubility / solubility in aqueous solution
# Format: physicochemical
# settings: aqueous with cosolvent or surfactant or cyclodextrin, thermodynamic from solid; 10% HP-β-CD buffer pH 7.4; 4 days at ambient temperature; read-out: Solubility, 10% HP-β-CD buffer pH 7.4
property: solubility at 4 days (µg/mL)
API: value field is a number in µg/mL; no unit string.

Request the reported solubility at 4 days associated with `O=C1CCc2cc(/C=C/C(=O)N3CCC=C(c4ccccc4)CC3)cnc2N1`
1080

Continuing:
Request the reported solubility at 4 days associated with `COc1ccc(F)cc1C1=CCCN(C(=O)/C=C/c2cnc3c(c2)CCC(=O)N3)CC1`
250

---

# experimental.details: Cytotoxicity MTT assay (TOX HELAM)
# Format: cell-based
# settings: human, HelaM cells, read-out: TOX HELAM (222.125) CC50
Catalogue of molecules with associated CC50 at 72 h

Some molecules with recorded CC50 at 72 h:
Request the reported CC50 at 72 h associated with `COc1cccc(C2=CCN(C(=O)/C=C/c3cnc4c(c3)CCC(=O)N4)CCC2)c1`
> 10.1 µg/mL

Request the reported CC50 at 72 h associated with `COc1ccccc1C1=CCN(C(=O)/C=C/c2cnc3c(c2)CCC(=O)N3)CCC1`
> 10.1 µg/mL

Continuing:
Request the reported CC50 at 72 h associated with `COc1ccc(F)cc1C1=CCN(C(=O)/C=C/c2cnc3c(c2)CCC(=O)N3)CCC1`
> 10.6 µg/mL

Request the reported CC50 at 72 h associated with `O=C1CCc2cc(/C=C/C(=O)N3CC=C(c4ccc(Cl)cc4)CCC3)cnc2N1`
6.85 µg/mL

Request the reported CC50 at 72 h associated with `Cc1ccc(F)cc1C1=CCN(C(=O)/C=C/c2cnc3c(c2)CCC(=O)N3)CCC1`
9.73 µg/mL

Request the reported CC50 at 72 h associated with `COc1ccc(C2=CCCN(C(=O)/C=C/c3cnc4c(c3)CCC(=O)N4)CC2)cc1`
> 10.1 µg/mL

Request the reported CC50 at 72 h associated with `O=C1CCc2cc(/C=C/C(=O)N3CCCN(c4ccccc4)CC3)cnc2N1`
> 9.46 µg/mL

Request the reported CC50 at 72 h associated with O=C1CCc2cc(/C=C/C(=O)N3CCCC(Cc4ccccc4)CC3)cnc2N1 (centres unmarked)
> 9.78 µg/mL
